Test system: LNCaP tumor-transplanted mouse
Assay: Internal radioactivity distribution using LNCaP tumor-transplanted mouse
Type: in vivo
Settings: 48 h after administration
Where Liver equals or exceeds 0.8 % ID/g, the correct label is 1; where it does not, the label is 0.

Compound	Category Label
O=C(O)CC[C@H](NC(=O)N[C@@H](CCCCNC(=O)[C@H](Cc1ccc2ccccc2c1)NC(=O)[C@H]1CC[C@H](CNC(=O)CCC(C(=O)O)N2CCN(CC(=O)O)CCN(C(CCC(=O)N[C@@H](CCCCNC(=O)CCCc3ccc(I)cc3)C(=O)O)C(=O)O)CCN(CC(=O)O)CC2)CC1)C(=O)O)C(=O)O (stereo partly drawn) [[^111In]In-PSMA-NAT-DA1, metal not drawn]	1
O=C([O-])CN1CCN(C(CCC(=O)NCCC(=O)N2Cc3ccccc3-c3c(nnn3CCOCCOCCOCCOCCC(=O)NCCCC[C@H](NC(=O)N[C@@H](CCC(=O)O)C(=O)O)C(=O)O)-c3ccccc32)C(=O)[O-])CCN(CC(=O)[O-])CCN(C(CCC(=O)N[C@@H](CCCCNC(=O)CCCc2ccc(I)cc2)C(=O)O)C(=O)[O-])CC1.[111In+3] (stereo partly drawn) [[^111In]In-PtDA]	1
O=C([O-])CN1CCN(C(CCC(=O)NCCCC[C@H](NC(=O)N[C@@H](CCC(=O)O)C(=O)O)C(=O)O)C(=O)[O-])CCN(CC(=O)[O-])CCN(C(CCC(=O)N[C@@H](CCCCNC(=O)CCCc2ccc(I)cc2)C(=O)O)C(=O)[O-])CC1.[111In+3] (stereo partly drawn) [[^111In]In-PSMA-DA1]	1
O=C([O-])CN(Cc1cccc(C(=O)[O-])n1)C[C@H](Cc1ccc(NC(=O)CCCCCNC(=O)CCC(=O)NCCCC[C@H](NC(=O)N[C@@H](CCC(=O)O)C(=O)O)C(=O)O)cc1)N(CC(=O)[O-])Cc1cccc(C(=O)[O-])n1.[111In+3] [[^111In]In-Octapa-1, reference compound]	0
O=C([O-])CN(CCN(CCc1ccc(NC(=O)[C@H](CCCCNC(=O)CCC(=O)NCCCC[C@H](NC(=O)N[C@@H](CCC(=O)O)C(=O)O)C(=O)O)NC(=O)CCCc2ccc(I)cc2)cc1)CCN(CC(=O)[O-])Cc1cccc(C(=O)[O-])n1)Cc1cccc(C(=O)[O-])n1.[111In+3] [[^111In]In-Neunpa-2]	0
O=C([O-])CN(Cc1cccc(C(=O)[O-])n1)C[C@H](Cc1ccc(NC(=O)[C@H](CCCCNC(=O)CCC(=O)NCCCC[C@H](NC(=O)N[C@@H](CCC(=O)O)C(=O)O)C(=O)O)NC(=O)CCCc2ccc(I)cc2)cc1)N(CC(=O)[O-])Cc1cccc(C(=O)[O-])n1.[111In+3] [[^111In]In-Octapa-2]	0

Has O=C([O-])CN(Cc1cccc(C(=O)[O-])n1)C[C@H](Cc1ccc(NC(=O)[C@H](CCCCNC(=O)CCC(=O)NCCCC[C@H](NC(=O)N[C@@H](CCC(=O)O)C(=O)O)C(=O)O)NC(=O)COCCOCCOCC(=O)N[C@@H](CCCCNC(=O)CCCc2ccc(I)cc2)C(=O)O)cc1)N(CC(=O)[O-])Cc1cccc(C(=O)[O-])n1.[111In+3] [[^111In]In-Octapa-3] a recorded Liver greater than or equal to 0.8 % ID/g?
1

Has O=C([O-])CN1CCN(C(CCC(=O)NCCCC[C@H](NC(=O)N[C@@H](CCC(=O)O)C(=O)O)C(=O)O)C(=O)[O-])CCN(CC(=O)[O-])CCN(C(CCC(=O)Nc2ccccc2)C(=O)[O-])CC1.[111In+3] (stereo partly drawn) [[^111In]In-PSMA-DB, reference compound] a recorded Liver greater than or equal to 0.8 % ID/g?
1
